Assay Comment: Half-life was determined for the compound in cell extracts (CE)
Type: ADME
Property Label: half-life (min)
Give bare numbers, in min.

Smiles String | Scale Unit | Recorded Result
CC(=O)N[C@@H](Cc1ccc(OP(=O)(O)OC[C@H]2O[C@@H](n3cc(C)c(=O)[nH]c3=O)C[C@@H]2N=[N+]=[N-])cc1)C(N)=O.Cl | min | 1160
Cc1cn([C@H]2C[C@H](N=[N+]=[N-])[C@@H](COP(=O)(O)Oc3ccc(C[C@H](N)CO)cc3)O2)c(=O)[nH]c1=O.Cl | min | 4080

Okay, next one:
INPUT: Report measured half-life; entry is Cc1cn([C@H]2C[C@H](N=[N+]=[N-])[C@@H](COP(=O)(O)Oc3ccc(C[C@H](N)C(=O)O)cc3)O2)c(=O)[nH]c1=O.Cl
OUTPUT: 768
